Target or system UniProt:Q96KS0: recorded IC50 listed per item.
Sequence (Q96KS0 whole entry): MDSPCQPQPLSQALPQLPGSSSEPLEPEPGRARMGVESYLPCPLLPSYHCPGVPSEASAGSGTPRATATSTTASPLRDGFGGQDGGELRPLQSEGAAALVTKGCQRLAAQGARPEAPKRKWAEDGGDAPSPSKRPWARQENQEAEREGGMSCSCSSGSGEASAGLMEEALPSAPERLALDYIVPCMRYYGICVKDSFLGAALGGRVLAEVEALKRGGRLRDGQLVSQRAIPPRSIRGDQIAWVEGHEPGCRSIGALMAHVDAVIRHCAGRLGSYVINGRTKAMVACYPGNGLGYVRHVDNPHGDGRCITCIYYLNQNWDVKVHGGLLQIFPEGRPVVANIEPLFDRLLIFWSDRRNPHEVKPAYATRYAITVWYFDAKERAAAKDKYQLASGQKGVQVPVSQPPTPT

O=C(O)C(=O)c1cccc(O)c1 ... > 1000 µM
O=C(O)CNC(=O)c1ncccc1O ... 91.1 µM

// below: IC50 requested for another molecule
With UniProt:Q96KS0 as the test system, `O=C(O)CNC(=O)c1ccccn1` showed IC50 of > 1000 µM
